Catalogue of molecules with associated TGI
# Tested on: 786-0 renal
# PROCEDURE_DETAILS: NCI tumour cell line growth inhibition, 48 h

These solved cases illustrate the format of a correct answer.
O=C1C=C(NCC(c2ccccc2)c2ccccc2)C(=O)c2ncccc21 | 15.3 µM
COc1cc(NCCC(=O)O)c2ncccc2c1 | > 100 µM
Cc1ccc2c(=O)c(-c3nnc(NC4CCCCC4)s3)c[nH]c2n1 | > 100 µM
NC(Cc1cccnn1)C(=O)O (stereo unspecified) | > 100 µM

Q: Form field: reported TGI of O=C(O/N=c1/ccc(=O)/c(=N\OC(=O)c2ccccc2)c1=O)c1ccccc1
Ans: > 100 µM

Q: Next molecule up: COc1ccc(C(OCC2OC3(COC(c4ccccc4)(c4ccc(OC)cc4)c4ccc(OC)cc4)C(Oc4nc(=O)ccn43)C2O)(c2ccccc2)c2ccc(OC)cc2)cc1 (stereo unspecified)
Ans: > 100 µM

Q: Next molecule up: O=[N+]([O-])c1cccc(-c2cn3c(n2)Cc2ccccc2C3)c1
Ans: > 100 µM

Q: Next molecule up: O=c1oc2ccccc2c(O)c1C(c1cccc(C(c2c(O)c3ccccc3oc2=O)c2c(O)c3ccccc3oc2=O)c1)c1c(O)c2ccccc2oc1=O
Ans: 45.1 µM

Q: Next molecule up: Cc1cc2c(nn1)CCc1c-2no[n+]1[O-]
Ans: > 100 µM

Q: Next molecule up: Cc1cc(-c2nc3n(c2/C=N/N=C(N)N)CCS3)c(C)s1
Ans: 30.8 µM

Q: Next molecule up: Clc1ccc(C(Cc2ccccc2)c2c(Cl)nc(N3CCNCC3)nc2Cl)cc1 (stereo unspecified)
Ans: 30.1 µM

Q: Next molecule up: Cn1c2c(c3ccccc3c1=O)C(=O)c1ccccc1-2
Ans: > 100 µM

Q: Next molecule up: CN1C(=O)[C@H](c2c[nH]c3ccccc23)[C@H](c2c[nH]c3ccccc23)C1=O
Ans: > 91.4 µM

Q: Next molecule up: S=c1[nH]n2c(COc3ccc(Cl)cc3)nnc2s1
Ans: > 100 µM

Q: Next molecule up: CC1=NN(C(=O)CC(=O)NC(=O)/C=C\c2ccccc2)C(=O)C1N=Nc1ccc([N+](=O)[O-])cc1 (stereo unspecified)
Ans: > 100 µM

Q: Next molecule up: N#C/C(=C\c1ccc([N+](=O)[O-])o1)c1n[nH]c(Cc2ccccc2)n1
Ans: 3.85 µM

* * *

# System: UACC-62 melanoma
# PROCEDURE_DETAILS: NCI tumour cell line growth inhibition, 48 h
READOUT_TYPE: TGI (µM)
# value in µM; strip the unit string

[Cl][Hg][c]1ccc2ccccc2c1 | 4.45
COc1cc(C2c3cc4c(cc3[C@@H](Nc3ccc([N+](=O)[O-])cc3)C3COC(=O)[C@H]23)OCO4)cc(OC)c1O (stereo not given in full) | 8.31
O=C(O)/C(Cl)=C(Cl)/C=N/NC(=O)c1cc2ccccc2cc1O | 14.6

# context switch: different molecule, same TGI
Q: Form field: reported TGI of O=C(Nc1ccc([N+](=O)[O-])cc1[N+](=O)[O-])C(=O)C(C(=O)c1ccc(Cl)c(Cl)c1)C1OC(=O)c2ccccc21 (stereo not given)
Ans: 36

* * *

# Test system: RXF-631 renal
# PROCEDURE_DETAILS: NCI tumour cell line growth inhibition, 48 h
Catalogue of compounds with associated TGI

O=C1C(Cl)=C(Cl)C(=O)N1c1ccc(F)cc1 | > 72.6 µM
COc1cccc2c(SCC(=O)Nc3ccccc3-c3ccccc3NC(=O)CSc3c4ccccc4nc4c(OC)cccc34)c3ccccc3nc12 | > 100 µM

# context switch: different compound, same TGI
Q: Form field: reported TGI of COC(=O)c1ccc(C(=O)OC)c2nc3cc(Cl)ccc3nc12
Ans: > 100 µM

* * *

# System: SNB-19 CNS
# PROCEDURE_DETAILS: NCI tumour cell line growth inhibition, 48 h
Catalogue of compounds with associated TGI

These solved cases illustrate the format of a correct answer.
O=C1N/C(=N\N=C\c2ccccc2)C2(CCCCC2)O1 | > 100 µM
CN(C)C(=S)/N=c1\ssc(=S)n1Cc1ccco1 | > 78.4 µM

Q: Form field: reported TGI of NCCCC(N=Cc1nc(-c2ccccc2)oc1O)C(=O)O (stereo not drawn)
Ans: > 100 µM

Q: Next compound up: CCCS(=O)c1nc(COC(=O)NC)c(COC(=O)NC)n1C (stereo not drawn)
Ans: > 100 µM

Q: Next compound up: O=C(NNc1ccccc1)c1ccc(Cl)c(Cl)c1
Ans: > 100 µM

Q: Next compound up: CCCCSc1nc(N)c2cn[nH]c2n1
Ans: > 76.8 µM

Q: Next compound up: COc1ccc(C(OCC2OC3(COC(c4ccccc4)(c4ccc(OC)cc4)c4ccc(OC)cc4)C(Oc4nc(=O)ccn43)C2O)(c2ccccc2)c2ccc(OC)cc2)cc1 (stereo not drawn)
Ans: > 100 µM

Q: Next compound up: CN(C(=S)Cc1ccc(Cl)c(Cl)c1)C1CCCC[C@@H]1N1CCCC1 (stereo partly drawn)
Ans: > 100 µM

Q: Next compound up: CNCC(=O)NC(CO)C(=O)NC(CO)C(=O)NC1C(C(N)=O)OC(n2ccc(N)nc2=O)C(O)C1O (stereo not drawn)
Ans: 45.1 µg/mL

Q: Next compound up: CCCCCCc1cc2cc(-c3cn4c(n3)sc3ccccc34)c(=O)oc2cc1O
Ans: > 100 µM

Q: Next compound up: C1=Nc2ccc(cc2)-c2ccc(cc2)N=Cc2ccc(cc2)OCc2cccc(n2)COc2ccc1cc2
Ans: > 100 µM

* * *

# System: NCI-H23 lung
# PROCEDURE_DETAILS: NCI tumour cell line growth inhibition, 48 h
Catalogue of compounds with associated TGI

C1=Nc2ccc(cc2)-c2ccc(cc2)N=Cc2ccc(cc2)OCc2cccc(n2)COc2ccc1cc2 | > 100 µM
C[C@@H](NC(=O)Cn1c(Cl)nc2ccccc21)c1ccccc1 | > 100 µM
O=NN1CCN=C1c1ccc([N+](=O)[O-])cc1 | > 100 µM

Q: Form field: reported TGI of CSC1(C(=O)O)C2CCC3C2CCC31 (configuration not stated)
Ans: > 100 µM

Q: Next compound up: CSc1nnc(-c2cc3c([nH]c4ccccc43)c(-c3cccc(O)c3)n2)n1-c1ccc(C)cc1
Ans: > 100 µM

Q: Next compound up: COC(=O)C(=O)C(C(C)=O)C(=O)NCc1ccccc1 (configuration not stated)
Ans: > 100 µM

Q: Next compound up: C[C@H]1COCCN1c1nc(-c2cnc(N)cc2C(F)F)nc(N2CCOCC2)n1
Ans: > 100 µM

* * *

Catalogue of compounds with associated log10(TGI)
# Test system: T-47D breast
# PROCEDURE_DETAILS: NCI tumour cell line growth inhibition, 48 h
Values are log10 of TGI in µM.

These solved cases illustrate the format of a correct answer.
CC1=NN(c2cccc(Cl)c2)C(=O)/C1=C\C=C\c1ccccc1 | 1.60
CC(=O)N1C(CCc2ccccc2)CC(C)(C=O)C1Cc1ccc(O[Si](C(C)C)(C(C)C)C(C)C)cc1 (stereo not drawn) | 1.11
COc1cccc(N2CCN(c3ncnc4cc[nH]c34)CC2)c1 | 1.64
Cc1nn(Cc2ccccc2)cc1C(=O)Nc1sc2c(c1C(N)=O)CCC(=O)C2 | 0.58

# context switch: different compound, same log10(TGI)
Q: Form field: reported log10(TGI) of CC(=O)c1ccc2c3c1[C@H]1O[C@H]1c1cccc(c1-3)[C@@H]1O[C@H]21
Ans: 0.82

* * *

# System: SN12C renal
# PROCEDURE_DETAILS: NCI tumour cell line growth inhibition, 48 h
READOUT_TYPE: TGI (µM)
# value in µM; strip the unit string

O=C(Cn1c(C(=O)/C=C/c2ccc(Cl)cc2)nc2ccccc21)c1ccc(Cl)cc1 | 37.3

# context switch: different compound, same TGI
Q: Form field: reported TGI of CC(=O)N1C(CCc2ccccc2)CC(C)(C=O)C1Cc1ccc(O[Si](C(C)C)(C(C)C)C(C)C)cc1 (stereo not given)
Ans: 9.06

* * *

# Tested on: SF-539 CNS
# PROCEDURE_DETAILS: NCI tumour cell line growth inhibition, 48 h
Catalogue of compounds with associated TGI

These solved cases illustrate the format of a correct answer.
CC1(C)OC[C@H](COCOP2(=O)Oc3ccc4ccccc4c3-c3c(ccc4ccccc34)O2)O1 | 39.8 µM
CCO[C@@]12CCC3CC4CC[C@@](OCC)(O1)C4C32 (some centres undefined) | > 100 µM
CC(C)[C@@H]1CC[C@@H](C)C[C@H]1OC(=O)/C=C1\C(C(=O)O[C@@H]2C[C@H](C)CC[C@H]2C(C)C)[C@H]2C=C[C@@H]1O2 (some centres undefined) | > 100 µM

Q: Form field: reported TGI of CSc1nnc(-c2cc3c([nH]c4ccccc43)c(-c3cccc(O)c3)n2)n1-c1ccc(C)cc1
Ans: 14.1 µM
